These measurements were taken from PubChem BioAssay (Tox21).

# targetDesc: Estrogen receptor (Homo sapiens) (UniProt P03372)
# Sequence (P03372 whole entry, looked up): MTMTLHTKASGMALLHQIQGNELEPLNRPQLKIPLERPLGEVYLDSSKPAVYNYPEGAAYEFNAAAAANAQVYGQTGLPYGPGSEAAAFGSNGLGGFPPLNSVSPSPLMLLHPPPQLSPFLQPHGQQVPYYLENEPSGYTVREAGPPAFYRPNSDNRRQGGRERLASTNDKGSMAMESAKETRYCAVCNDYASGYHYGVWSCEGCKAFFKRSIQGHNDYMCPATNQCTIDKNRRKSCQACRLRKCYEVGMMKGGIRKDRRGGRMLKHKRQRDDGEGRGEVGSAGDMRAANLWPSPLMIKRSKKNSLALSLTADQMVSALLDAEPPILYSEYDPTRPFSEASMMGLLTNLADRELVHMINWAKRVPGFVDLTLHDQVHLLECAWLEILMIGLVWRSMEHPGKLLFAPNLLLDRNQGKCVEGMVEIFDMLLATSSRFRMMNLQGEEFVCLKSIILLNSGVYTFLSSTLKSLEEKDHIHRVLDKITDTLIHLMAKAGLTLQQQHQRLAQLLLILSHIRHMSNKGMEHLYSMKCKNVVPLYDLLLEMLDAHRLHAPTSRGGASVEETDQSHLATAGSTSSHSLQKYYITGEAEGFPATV
# protocolText: qHTS assay to identify small molecule antagonists of the estrogen receptor alpha (ER-alpha) signaling pathway using the BG1 cell line in the presence of 0.1 nM 17-beta-estradiol (AID 1259244); also: nearly all actives have a fitted effect of over 50% in size
# measurementConditions: VM7Luc4E2 (BG1) ERE-luciferase, antagonist mode, 0.1 nM E2, 22 h; series mostly up to 92.4 µM
Inconclusive results are not listed. Calls of active or inactive are those of the source. Calls follow the shape of the dose curve; as a rule, active = well fitted inhibition curve with a large enough effect in the repeat runs; inconclusive = weak or mixed curves; inactive = no such curve, though single readings can be large or run the other way.
Labels: 1 (yes) (active), 0 (no) (inactive)

# compound, label
data = [
    ("O=c1oc2ccccc2c(O)c1C(CC(O)c1ccc(-c2ccc(Br)cc2)cc1)c1ccccc1 (stereo not drawn)", "0 (no)"),
    ("CCCCCCOC(=O)c1ccccc1C(=O)OCCCCCC", "0 (no)"),
    ("O=C(NC(=O)c1c(F)cccc1F)Nc1ccc(Cl)cc1", "0 (no)"),
    ("CC(C)Oc1cc(-n2nc(C(C)(C)C)oc2=O)c(Cl)cc1Cl", "1 (yes)"),
    ("c1ccc(-c2cccc(-c3ccccc3)c2)cc1", "0 (no)"),
    ("CCCCNC(=O)n1c(NC(=O)OC)nc2ccccc21", "0 (no)"),
    ("NNC(=S)NN", "0 (no)"),
    ("CC(C)C(=O)OCC(C)(C)C(OC(=O)C(C)C)C(C)C (stereo not drawn)", "0 (no)"),
    ("CCc1cccc(CC)c1N(COC)C(=O)CCl", "1 (yes)"),
    ("CCC(=O)O[C@H]1CC[C@H]2[C@@H]3CCC4=CC(=O)CC[C@]4(C)[C@H]3CC[C@]12C", "0 (no)"),
    ("CNC(=O)N(C)c1nnc(C(C)(C)C)s1", "0 (no)"),
    ("CCCCC(CC)COC(=O)Cl (stereo not drawn)", "0 (no)"),
    ("OCC(O)CO", "0 (no)"),
]
